Give measured pKi for each item. Keep answers brief.
TARGET OR SYSTEM: human histamine H4 receptor (Homo sapiens, UniProt Q9H3N8)
Construct: purchased PerkinElmer Inc; host or cells: CHO-K1
Sequence (Q9H3N8 whole entry): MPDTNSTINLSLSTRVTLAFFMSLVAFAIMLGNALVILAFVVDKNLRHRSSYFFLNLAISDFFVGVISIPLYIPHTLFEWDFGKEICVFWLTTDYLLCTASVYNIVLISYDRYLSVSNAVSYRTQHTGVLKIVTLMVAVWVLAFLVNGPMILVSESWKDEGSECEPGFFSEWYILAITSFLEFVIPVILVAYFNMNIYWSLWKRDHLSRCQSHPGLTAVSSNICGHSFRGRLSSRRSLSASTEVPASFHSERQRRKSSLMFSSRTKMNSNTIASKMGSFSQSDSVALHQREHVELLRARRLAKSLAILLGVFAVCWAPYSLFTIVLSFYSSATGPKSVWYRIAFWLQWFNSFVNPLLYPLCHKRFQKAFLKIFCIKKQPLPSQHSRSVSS
TEST DESCRIPTION: Evaluation of Human H4 Receptor Affinity ([3H]histamine binding)
CONDITION NOTES: inhibition constant Ki, CHO-K1 membrane preparation, read-out: Evaluation of H4 Receptor Affinity
pKi: −log10 of the molar value. Counter-ions that a name gives are not always drawn.

// molecule COC(=O)c1ccc(COCCN2CCN(c3nc(N)nc4c3CCc3cc(OCc5ccc(Cl)cc5)ccc3-4)CC2)cc1 [128(a)] , assay human histamine H4 receptor (Homo sapiens, UniProt Q9H3N8), pKi value: 6.30 to 7.00

// molecule [2H]C([2H])(C(=O)O)[C@H]1C[C@@H](OCCN2CCN(c3nc(N)nc4c3CCc3cc(OCc5ccc(OC(F)(F)F)cc5)ccc3-4)CC2)C1 [Example 184] , assay human histamine H4 receptor (Homo sapiens, UniProt Q9H3N8), pKi value: > 7.00

// molecule Nc1nc2c(c(N3CCNCC3)n1)CCc1cc(OCc3ccccc3)ccc1-2 [Example 5] , assay human histamine H4 receptor (Homo sapiens, UniProt Q9H3N8), pKi value: > 7.00

// molecule Nc1nc2c(c(N3CCN(CCOC45CCC(C(=O)O)(CC4)CC5)CC3)n1)CCc1cc(OCc3ccc(Cl)cc3)ccc1-2 [Example 157, hydrochloride] , assay human histamine H4 receptor (Homo sapiens, UniProt Q9H3N8), pKi value: > 7.00

// molecule NCCOCCOCCN1CCN(c2nc(N)nc3c2CCc2cc(OCc4ccc(Cl)cc4)ccc2-3)CC1 [Example 118] , assay human histamine H4 receptor (Homo sapiens, UniProt Q9H3N8), pKi value: > 7.00

// molecule Nc1nc2c(c(N3CCN(CCOC[C@H]4CC[C@@H](C(=O)O)C4)CC3)n1)CCc1cc(OCc3ccc(Cl)cc3)ccc1-2 (relative stereo) [153(b)] , assay human histamine H4 receptor (Homo sapiens, UniProt Q9H3N8), pKi value: > 7.00

// molecule Nc1nc2c(c(N3CCN(CCOCCOCC4(C(=O)O)COC4)CC3)n1)CCc1cc(OCc3ccc(Cl)cc3)ccc1-2 [Example 168] , assay human histamine H4 receptor (Homo sapiens, UniProt Q9H3N8), pKi value: 6.30 to 7.00

// molecule Nc1nc2c(c(N3CCN(CCOCC45C6C7C4C4C5C6C74C(=O)O)CC3)n1)CCc1cc(OCc3ccc(Cl)cc3)ccc1-2 (stereo not shown) [Example 151, dihydrochloride] , assay human histamine H4 receptor (Homo sapiens, UniProt Q9H3N8), pKi value: > 7.00

// molecule CC(C)(C(=O)O)[C@H]1C[C@H](OCCN2CCN(c3nc(N)nc4c3CCc3cc(OCc5ccc(OC(F)(F)F)cc5)ccc3-4)CC2)C1 [Example 174] , assay human histamine H4 receptor (Homo sapiens, UniProt Q9H3N8), pKi value: > 7.00

// molecule CN1CCN(c2nc(N)nc3c2CCc2cc(OCc4ccc(Cl)cc4)ccc2-3)CC1 [Example 1] , assay human histamine H4 receptor (Homo sapiens, UniProt Q9H3N8), pKi value: > 7.00

====

TARGET OR SYSTEM: human histamine H4 receptor (Homo sapiens)
Construct: purchased PerkinElmer Inc; host or cells: CHO-K1
TEST DESCRIPTION: Evaluation of Human H4 Receptor Affinity ([3H]histamine binding)
CONDITION NOTES: inhibition constant Ki, CHO-K1 membrane preparation, read-out: Evaluation of H4 Receptor Affinity
Where a name gives a salt, the structure may show the parent alone.
Give measured Ki for each item. Keep answers brief.

// compound Nc1nc2c(c(N3CCN(CCOCCn4ccc(C(=O)O)n4)CC3)n1)CCc1cc(OCc3ccc(Cl)cc3)ccc1-2 [Example 138, dihydrochloride] , assay human histamine H4 receptor (Homo sapiens), Ki value: 100 to 500 nM

// compound "C[C@]1(C(=O)O)C[C@H](OCCN2CCN(c3nc(N)nc4c3CCc3cc(OCc5ccc(Cl)cc5)ccc3-4)CC2)C1" , assay human histamine H4 receptor (Homo sapiens), Ki value: < 100 nM

// compound "COC(=O)COCCOCCN1CCN(c2nc(N)nc3c2CCc2cc(OCc4ccc(Cl)cc4)ccc2-3)CC1" , assay human histamine H4 receptor (Homo sapiens), Ki value: < 100 nM

====

TARGET OR SYSTEM: human histamine H4 receptor (Homo sapiens, UniProt Q9H3N8)
Construct: purchased PerkinElmer Inc; host or cells: CHO-K1
TEST DESCRIPTION: Evaluation of Human H4 Receptor Affinity ([3H]histamine binding)
CONDITION NOTES: inhibition constant Ki, CHO-K1 membrane preparation, read-out: Evaluation of H4 Receptor Affinity
pKi: −log10 of the molar value. Counter-ions that a name gives are not always drawn.
METRIC NAME: pKi

Memo: CN(C)[C@H]1CCN(c2nc(N)nc3c2CCc2cc(OCc4ccccc4)ccc2-3)C1 [Example 102] , reported pKi: > 7.00

Memo: Nc1nc2c(c(N3CCN(CCOCC4(O)CCC(C(=O)O)CC4)CC3)n1)CCc1cc(OCc3ccc(Cl)cc3)ccc1-2 (stereo not drawn) [166(b)] , reported pKi: 6.30 to 7.00

Memo: CCS(=O)(=O)CCCN1CCN(c2nc(N)nc3c2CCc2cc(OCc4ccc(Cl)cc4)ccc2-3)CC1 [Example 114] , reported pKi: 6.30 to 7.00

Memo: CCOC(=O)[C@]1(C)C[C@H](OCCN2CCN(c3nc(N)nc4c3CCc3cc(OCc5ccc(Cl)cc5)ccc3-4)CC2)C1 [26(a)] , reported pKi: 6.30 to 7.00

Memo: CC1(C(=O)O)CC(OCCN2CCN(c3nc(N)nc4c3CCc3cc(OCc5ccc(OC(F)(F)F)cc5)ccc3-4)CC2)C1 (stereo not drawn) [Example 31] , reported pKi: 6.30 to 7.00

Memo: Nc1nc2c(c(N3CCN(CCOCCO)CC3)n1)CCc1cc(OCc3ccc(Cl)cc3)ccc1-2 [Example 8] , reported pKi: > 7.00

Memo: Nc1nc2c(c(N3CCN(CCCCOCc4nnn[nH]4)CC3)n1)CCc1cc(OCc3ccc(Cl)cc3)ccc1-2 [Example 145, bis(trifluoroacetate)] , reported pKi: > 7.00

Memo: Nc1nc2c(c(N3CCN(CCc4ccc(OCC(=O)O)cc4)CC3)n1)CCc1cc(OCc3ccc(Cl)cc3)ccc1-2 [Example 140, dihydrochloride] , reported pKi: 6.30 to 7.00

Memo: Nc1nc2c(c(N3CCN(CCOCc4nn[nH]n4)CC3)n1)CCc1cc(OCc3ccc(Cl)cc3)ccc1-2 [Example 22] , reported pKi: > 7.00

====

TARGET OR SYSTEM: human histamine H4 receptor (Homo sapiens, UniProt Q9H3N8)
Construct: purchased PerkinElmer Inc; host or cells: CHO-K1
TEST DESCRIPTION: Evaluation of Human H4 Receptor Affinity ([3H]histamine binding)
CONDITION NOTES: inhibition constant Ki, CHO-K1 membrane preparation, read-out: Evaluation of H4 Receptor Affinity
Structures can show the parent of a compound that is named as a salt.
METRIC NAME: Ki

Memo: "COC(=O)c1ccc(S(=O)(=O)Nc2ccc3c(c2)CCc2c-3nc(N)nc2N2CCN(C)CC2)cc1" , reported Ki: 100 to 500 nM

Memo: Nc1nc2c(c(N3CCN(CCOc4ccccc4CC(=O)O)CC3)n1)CCc1cc(OCc3ccc(Cl)cc3)ccc1-2 [Example 136, dihydrochloride] , reported Ki: 100 to 500 nM

Memo: "CN1CCN(c2nc(N)nc3c2CCc2cc(NS(=O)(=O)c4ccc(Cl)cc4F)ccc2-3)CC1" , reported Ki: 100 to 500 nM

Memo: "Nc1nc2c(c(N3CCN(CCOCc4cc(OCc5ccccc5)no4)CC3)n1)CCc1cc(OCc3ccc(Cl)cc3)ccc1-2" , reported Ki: 100 to 500 nM

Memo: "Nc1nc2c(c(N3CCN(CCOCc4ccc(C(=O)O)s4)CC3)n1)CCc1cc(OCc3ccc(OC(F)(F)F)cc3)ccc1-2" , reported Ki: 100 to 500 nM

Memo: N#CC1(C(=O)O)CCC(COCCN2CCN(c3nc(N)nc4c3CCc3cc(OCc5ccc(OC(F)(F)F)cc5)ccc3-4)CC2)CC1 (stereo not shown) , reported Ki: < 100 nM

Memo: CNC(=O)COCCOCCN1CCN(c2nc(N)nc3c2CCc2cc(OCc4ccc(Cl)cc4)ccc2-3)CC1 [Example 188, dihydrochloride] , reported Ki: < 100 nM
